Tested on: NCI-H441
Assay: relative viability (nuclei count vs DMSO), 5 days (fraction); higher = more cells survive
Conditions: first compound 8 µM
measured endpoint: relative viability
Quick one: just the number, no unit, thanks!

For the compound O=c1cc(-c2cccc3c2Sc2ccccc2S3)oc(N2CCOCC2)c1 + C[C@@H](Oc1cc(-c2cnn(C3CCNCC3)c2)cnc1N)c1c(Cl)ccc(F)c1Cl [Crizotinib] (partner 1 µM) , what relative viability is on record?
1

Now give it for O=c1cc(-c2cccc3c2Sc2ccccc2S3)oc(N2CCOCC2)c1 + COc1cc2c(Oc3ccc(NC(=O)C4(C(=O)Nc5ccc(F)cc5)CC4)cc3F)ccnc2cc1OCCCN1CCOCC1 [Foretinib] (partner 0.25 µM) too.
0.98

Also O=c1cc(-c2cccc3c2Sc2ccccc2S3)oc(N2CCOCC2)c1 + O=C(CCCCCCC(=O)Nc1ccccc1)NO [Vorinostat] (partner 1 µM) , if possible.
0.935

Please give the result for O=c1cc(-c2cccc3c2Sc2ccccc2S3)oc(N2CCOCC2)c1 + N=C(N)NC(=N)NCCc1ccccc1 [Phenformin] (partner 250 µM) too.
0.904

How about O=c1cc(-c2cccc3c2Sc2ccccc2S3)oc(N2CCOCC2)c1 + Cc1nc(Nc2ncc(C(=O)Nc3c(C)cccc3Cl)s2)cc(N2CCN(CCO)CC2)n1 [Dasatinib] (partner 0.075 µM) ?
0.658

----------
Test system: PC-3 [JPC-3]
Experiment: relative viability (nuclei count vs DMSO), 5 days (fraction); higher = more cells survive
Settings: first compound 8 µM
The entries below are paired with their reported relative viability.
Reply: number alone, nothing else.

compound: O=c1cc(-c2cccc3c2Sc2ccccc2S3)oc(N2CCOCC2)c1 + Nc1ncn([C@H]2C[C@H](O)[C@@H](CO)O2)c(=O)n1 [Decitabine] (partner 2 µM)
relative viability: 0.884
//
compound: O=c1cc(-c2cccc3c2Sc2ccccc2S3)oc(N2CCOCC2)c1 + Cc1cc(Nc2cc(N3CCN(C)CC3)nc(Sc3ccc(NC(=O)C4CC4)cc3)n2)n[nH]1 [Tozasertib] (partner 0.1 µM)
relative viability: 0.714

# lookup: relative viability of O=c1cc(-c2cccc3c2Sc2ccccc2S3)oc(N2CCOCC2)c1 + CCNC(=O)c1noc(-c2cc(C(C)C)c(O)cc2O)c1-c1ccc(CN2CCOCC2)cc1 [Luminespib] (partner 0.01 µM)
0.493

Similarly, O=c1cc(-c2cccc3c2Sc2ccccc2S3)oc(N2CCOCC2)c1 + COc1cc2c(Oc3ccc(NC(=O)C4(C(=O)Nc5ccc(F)cc5)CC4)cc3F)ccnc2cc1OCCCN1CCOCC1 [Foretinib] (partner 0.25 µM) ?
1.2

----------
Test system: EPLC-272H
Test: relative viability (nuclei count vs DMSO), 5 days (fraction); higher = more cells survive
Conditions: first compound 0.08 µM
measured endpoint: relative viability
Give the figure by itself; no unit, no explanation.

compound: O=c1cc(-c2cccc3c2Sc2ccccc2S3)oc(N2CCOCC2)c1 + Cc1nc(Nc2ncc(C(=O)Nc3c(C)cccc3Cl)s2)cc(N2CCN(CCO)CC2)n1 [Dasatinib] (partner 0.075 µM)
relative viability: 0.331

Field: relative viability (EPLC-272H). Entry: O=c1cc(-c2cccc3c2Sc2ccccc2S3)oc(N2CCOCC2)c1 + Cc1nc(NC(=O)N2CCC[C@H]2C(N)=O)sc1-c1ccnc(C(C)(C)C(F)(F)F)c1 [Alpelisib] (partner 2 µM)
0.966

Proceed to O=c1cc(-c2cccc3c2Sc2ccccc2S3)oc(N2CCOCC2)c1 + Nc1ncn([C@H]2C[C@H](O)[C@@H](CO)O2)c(=O)n1 [Decitabine] (partner 2 µM)
0.341

Next compound: COc1nc(C)cnc1NS(=O)(=O)c1cccnc1-c1ccc(-c2nnco2)cc1 [Zibotentan] + Cc1nc(NC(=O)N2CCC[C@H]2C(N)=O)sc1-c1ccnc(C(C)(C)C(F)(F)F)c1 [Alpelisib] (partner 2 µM)
0.805

----------
Test system: PC-14
Assay: relative viability (nuclei count vs DMSO), 5 days (fraction); higher = more cells survive
Conditions: first compound 0.01 µM
measured endpoint: relative viability

Sample answers from the record:
compound: CCN(CC)CCCCNc1ncc2cc(-c3cc(OC)cc(OC)c3)c(NC(=O)NC(C)(C)C)nc2n1 + N=C(N)NC(=N)NCCc1ccccc1 [Phenformin] (partner 250 µM)
relative viability: 0.439

compound: O=c1cc(N2CCOCC2)oc2c(-c3cccc4c3sc3ccccc34)cccc12 + C[C@@H](Oc1cc(-c2cnn(C3CCNCC3)c2)cnc1N)c1c(Cl)ccc(F)c1Cl [Crizotinib] (partner 1 µM)
relative viability: 0.906

Now take the following compound into account.
Data request, read-out relative viability, for CCN(CC)CCCCNc1ncc2cc(-c3cc(OC)cc(OC)c3)c(NC(=O)NC(C)(C)C)nc2n1 + C[C@@H](Oc1cc(-c2cnn(C3CCNCC3)c2)cnc1N)c1c(Cl)ccc(F)c1Cl [Crizotinib] (partner 1 µM)
0.916

----------
Below: a set of entries, each annotated with reported relative viability.
Tested on: EKVX
Test: relative viability (nuclei count vs DMSO), 5 days (fraction); higher = more cells survive
Settings: first compound 0.01 µM
Form rule: numeric answer, no unit written next to it.

These solved cases illustrate the format of a correct answer.
compound: CCN(CC)CCCCNc1ncc2cc(-c3cc(OC)cc(OC)c3)c(NC(=O)NC(C)(C)C)nc2n1 + Cc1nc(Nc2ncc(C(=O)Nc3c(C)cccc3Cl)s2)cc(N2CCN(CCO)CC2)n1 [Dasatinib] (partner 0.075 µM)
measured endpoint: relative viability
test value: 0.547
--
compound: O=c1cc(N2CCOCC2)oc2c(-c3cccc4c3sc3ccccc34)cccc12 + Nc1nc2[nH]cc(CCc3ccc(C(=O)N[C@@H](CCC(=O)O)C(=O)O)cc3)c2c(=O)[nH]1 [Pemetrexed] (partner 0.2 µM)
measured endpoint: relative viability
test value: 0.41
--
compound: O=c1cc(N2CCOCC2)oc2c(-c3cccc4c3sc3ccccc34)cccc12 + Cc1nc(Nc2ncc(C(=O)Nc3c(C)cccc3Cl)s2)cc(N2CCN(CCO)CC2)n1 [Dasatinib] (partner 0.075 µM)
measured endpoint: relative viability
test value: 0.528

Now consider a different compound.
Please give the measured relative viability for this compound: O=c1cc(N2CCOCC2)oc2c(-c3cccc4c3sc3ccccc34)cccc12 + CC(=O)Nc1cccc(-n2c(=O)n(C3CC3)c(=O)c3c(Nc4ccc(I)cc4F)n(C)c(=O)c(C)c32)c1 [Trametinib] (partner 0.02 µM)
0.299

----------
Test system: NCI-H1975
Assay: relative viability (nuclei count vs DMSO), 5 days (fraction); higher = more cells survive
Settings: first compound 0.253 µM
measured endpoint: relative viability
Write no unit; give the number alone.

compound: O=c1cc(-c2cccc3c2Sc2ccccc2S3)oc(N2CCOCC2)c1 + CS(=O)(=O)CCNCc1ccc(-c2ccc3ncnc(Nc4ccc(OCc5cccc(F)c5)c(Cl)c4)c3c2)o1 [Lapatinib] (partner 2 µM)
target or test system: NCI-H1975
test value: 1.06

Entry COc1nc(C)cnc1NS(=O)(=O)c1cccnc1-c1ccc(-c2nnco2)cc1 [Zibotentan] + Nc1nc2[nH]cc(CCc3ccc(C(=O)N[C@@H](CCC(=O)O)C(=O)O)cc3)c2c(=O)[nH]1 [Pemetrexed] (partner 0.2 µM) has what relative viability?
0.281

----------
relative viability values for the compounds below.
System: H3255
Assay: relative viability (nuclei count vs DMSO), 5 days (fraction); higher = more cells survive
Settings: first compound 1 µM
Answer with the value's number alone.

For orientation, consider the following solved cases.
compound: CCN(CC)CCCCNc1ncc2cc(-c3cc(OC)cc(OC)c3)c(NC(=O)NC(C)(C)C)nc2n1 + Cc1nc(NC(=O)N2CCC[C@H]2C(N)=O)sc1-c1ccnc(C(C)(C)C(F)(F)F)c1 [Alpelisib] (partner 2 µM)
relative viability: 0.689
--
compound: O=c1cc(N2CCOCC2)oc2c(-c3cccc4c3sc3ccccc34)cccc12 + CC(=O)c1c(C)c2cnc(Nc3ccc(N4CCNCC4)cn3)nc2n(C2CCCC2)c1=O [Palbociclib] (partner 0.5 µM)
relative viability: 0.312
--
compound: CCN(CC)CCCCNc1ncc2cc(-c3cc(OC)cc(OC)c3)c(NC(=O)NC(C)(C)C)nc2n1 + NC(=O)Nc1cc(-c2cccc(F)c2)sc1C(=O)N[C@H]1CCCNC1 [AZD7762] (partner 0.2 µM)
relative viability: 0.855
--
compound: O=c1cc(N2CCOCC2)oc2c(-c3cccc4c3sc3ccccc34)cccc12 + N=C(N)NC(=N)NCCc1ccccc1 [Phenformin] (partner 250 µM)
relative viability: 0.35
--
compound: CCN(CC)CCCCNc1ncc2cc(-c3cc(OC)cc(OC)c3)c(NC(=O)NC(C)(C)C)nc2n1 + Cc1nc(Nc2ncc(C(=O)Nc3c(C)cccc3Cl)s2)cc(N2CCN(CCO)CC2)n1 [Dasatinib] (partner 0.075 µM)
relative viability: 0.339
--
compound: O=c1cc(N2CCOCC2)oc2c(-c3cccc4c3sc3ccccc34)cccc12 + O=C(c1cc(Cc2n[nH]c(=O)c3ccccc23)ccc1F)N1CCN(C(=O)C2CC2)CC1 [Olaparib] (partner 8 µM)
relative viability: 0.53
--
compound: CCN(CC)CCCCNc1ncc2cc(-c3cc(OC)cc(OC)c3)c(NC(=O)NC(C)(C)C)nc2n1 + CC(C)C[C@H](NC(=O)[C@H](Cc1ccccc1)NC(=O)c1cnccn1)B(O)O [Bortezomib] (partner 0.002 µM)
relative viability: 0.656
--
compound: CCN(CC)CCCCNc1ncc2cc(-c3cc(OC)cc(OC)c3)c(NC(=O)NC(C)(C)C)nc2n1 + CS(=O)(=O)N1CCN(Cc2cc3nc(-c4cccc5[nH]ncc45)nc(N4CCOCC4)c3s2)CC1 [Pictilisib] (partner 1 µM)
relative viability: 0.501
--
compound: CCN(CC)CCCCNc1ncc2cc(-c3cc(OC)cc(OC)c3)c(NC(=O)NC(C)(C)C)nc2n1 + C[C@@H](Oc1cc(-c2cnn(C3CCNCC3)c2)cnc1N)c1c(Cl)ccc(F)c1Cl [Crizotinib] (partner 1 µM)
relative viability: 0.843
--
compound: CCN(CC)CCCCNc1ncc2cc(-c3cc(OC)cc(OC)c3)c(NC(=O)NC(C)(C)C)nc2n1 + Cc1cc(Nc2cc(N3CCN(C)CC3)nc(Sc3ccc(NC(=O)C4CC4)cc3)n2)n[nH]1 [Tozasertib] (partner 0.1 µM)
relative viability: 0.585

Need relative viability of CCN(CC)CCCCNc1ncc2cc(-c3cc(OC)cc(OC)c3)c(NC(=O)NC(C)(C)C)nc2n1 + N=C(N)NC(=N)NCCc1ccccc1 [Phenformin] (partner 250 µM) , thanks.
0.356

Then what about the compound CCN(CC)CCCCNc1ncc2cc(-c3cc(OC)cc(OC)c3)c(NC(=O)NC(C)(C)C)nc2n1 + CC1(C)CCC(c2ccc(Cl)cc2)=C(CN2CCN(c3ccc(C(=O)NS(=O)(=O)c4ccc(N[C@H](CCN5CCOCC5)CSc5ccccc5)c(S(=O)(=O)C(F)(F)F)c4)cc3)CC2)C1 [Navitoclax] (partner 0.5 µM) ?
0.502
